In this section, each of the compounds is paired with its reported inhibition at 1 µM.
# measured on: lipoxygenase (Rattus norvegicus)
# Construct: microsomal fraction containing lipoxygenase and cyclooxygenase; endogenous in cells; host or cells: RBL-1 (rat basophilic leukemia) cells, homogenate / microsomal fraction
# Sequence (P12527 whole entry): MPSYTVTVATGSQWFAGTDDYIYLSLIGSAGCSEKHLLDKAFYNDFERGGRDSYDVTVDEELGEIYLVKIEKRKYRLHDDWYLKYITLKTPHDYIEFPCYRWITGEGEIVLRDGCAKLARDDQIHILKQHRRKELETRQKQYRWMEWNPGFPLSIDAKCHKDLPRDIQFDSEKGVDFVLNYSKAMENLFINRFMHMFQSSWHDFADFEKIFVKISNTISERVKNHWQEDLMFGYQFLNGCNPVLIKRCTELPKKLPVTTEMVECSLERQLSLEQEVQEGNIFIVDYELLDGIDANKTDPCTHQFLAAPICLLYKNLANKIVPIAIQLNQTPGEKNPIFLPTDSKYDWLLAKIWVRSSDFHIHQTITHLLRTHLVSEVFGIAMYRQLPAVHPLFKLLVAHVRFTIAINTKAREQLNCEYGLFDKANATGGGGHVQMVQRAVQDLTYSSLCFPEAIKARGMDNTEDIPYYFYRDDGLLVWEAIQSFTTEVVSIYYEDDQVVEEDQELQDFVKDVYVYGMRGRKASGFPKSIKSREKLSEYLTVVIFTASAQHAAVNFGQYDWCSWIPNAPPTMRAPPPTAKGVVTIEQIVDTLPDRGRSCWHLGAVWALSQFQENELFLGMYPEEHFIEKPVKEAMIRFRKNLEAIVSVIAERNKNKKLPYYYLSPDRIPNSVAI
# measurement notes: Inhibition of lipoxygenase derived from rat basophilic leukemia (RBL-1) cells, products L1 (5,12-di-HETE) and L2 (5-HETE)
# Type: biochemical
# study conditions: dose of 1 μM; L1 = 5,12-di-HETE; read-out: % Inhibition of lipoxygenase (L1) formation
reported endpoint: inhibition at 1 µM (%)

{"chemical smiles": "O=C(c1ccccc1Nc1ccc(O)cc1)N1CCOCC1", "measurement units": "%", "number": 37}
{"chemical smiles": "CCN(CC)C(=O)c1ccccc1Nc1ccc(O)cc1", "measurement units": "%", "number": 33}
{"chemical smiles": "CCN(C)C(=O)c1ccccc1Nc1ccc(O)cc1", "measurement units": "%", "number": 66}
